assay: yeast display, Sf9 membrane polyspecificity reagent, FACS + sequencing; frameworks hold sequencing errors
MEASURED_QUANTITY: polyreactivity (PSR sort gate)

Solved cases below.
ORDERED_RESIDUES	RESULT
QVQLVESGGGLVQAGGSLRLSCAASGITFGPYAMGWYRQATGKERELVAAINWSGGSTYYADSVKGRFTISRDNAKTTVYLQMNSLKPEDTAVYYCAAEPYKRLYQFYFWGQGTQVTVSS	high polyreactivity
QVQLVESGGGLVQEGGSLRLSCAASGSIFNTYAMGRYRQAPGKEREMVAGITKTGSRTYYADSVKGRFTISRDNAKNTVYLQMNSLKPEDTAVYYCNARIWPRSYRYDYWGQGTQVTVSS	high polyreactivity
QVQLVESGGGLVQAGGSLRLSCAASGSILPRYVMGSYRQAPAKETELVAAISQSGGSTYYADTVKARFTISRDNAKNTVYLQMNRLKPEDTAVYYCAAEVRGWRVDYYYWGQGTQVTVSS	high polyreactivity
QVQLVESCGGLVQAGGSLRLSCAASGSTFRFYAMGWYRQAPGKERELVAAINGSGGSTYYADSVKGRFTISRDNAKNTVYLQMNSLKPEDTAVYYCAVLYRYGYDYWGQGTQVTVSW	low polyreactivity

What value of measured polyreactivity (PSR sort gate) is listed for `QVQLVESGGGLVQAGGSLRLSCAASGSTLAVYSMGWYRQAPGKEREFVAAISWSGVSTYYADSVKGRFTISRDNAKNTVYLQMNSLKPEDTAVYYCAAKRVRALYGGSEGGYWGQGTQVTVSS` ? low polyreactivity

----------
test: yeast display, Sf9 membrane polyspecificity reagent, FACS + sequencing; frameworks hold sequencing errors
MEASURED_QUANTITY: polyreactivity (PSR sort gate)

Solved cases below.
ORDERED_RESIDUES	MEASURED_QUANTITY	RESULT
QVQLVESGGGLVQAGGSLRLSCAASGRIIYINAMGWYRQAPGKERELVAAISSDGNTNYADSVKGRFTISRDNAKNTVYLQMNSLKPEDTAVYYCNADVWFYYTFDYWGLGTQVTVSS	polyreactivity (PSR sort gate)	low polyreactivity
QVQLVESGGGLVQAGGSLRLSCAASGSTFGYYAMGWYRQAPGKERELVAAISKRGGSTYYADSVKGRFTISRDNAKNTVYLQMNSLKPEDTAVYYCAAAPYKYPGDYWGQGTQVTVSS	polyreactivity (PSR sort gate)	high polyreactivity
QVQLVESGGGLVQAGGSLRFSCAASGFTFYLYTMGWYRQAPGKDRELVAAINYSGGTTYYADSVKGRFTISRDNAKNTVYLQMNSLKPEDTAVYYCAATVGYSYNPRKNYYWGQGTQVTVSS	polyreactivity (PSR sort gate)	low polyreactivity
QVQLVESGGGLVQAGGSLRLSCAASGSIFVDYAMGWYRQAPGKERELVAAISWRGGSTYYADSVKGRFTISRDNAKNTVYLQMNSLKPEDTAVYYCAALTPFKYDYWGQGTKVTVSS	polyreactivity (PSR sort gate)	low polyreactivity

What value of measured polyreactivity (PSR sort gate) is listed for `QVQLVESGGGLVQAGGSLRLSCAASGITFTGYAMGWYRQAPGKERELVAAITSGGGRTYYADSVKGRFTISRDNAKNTVYLQMNSLKPEDTAVYYCAFRYHGYDYWGQGTQVTVSS` ? high polyreactivity

----------
experiment: yeast display, Sf9 membrane polyspecificity reagent, FACS + sequencing; frameworks hold sequencing errors
MEASURED_QUANTITY: polyreactivity (PSR sort gate)

Solved cases below.
ORDERED_RESIDUES	RESULT
QVQLVESGGGLVQAGGSLRLSCAASGLIFRVYAMGWYRQAPGKERELVAAISISDGTTNYADSVKGRFTISRDNAKNTVYLQMNSLKPEDTAVYYCAADYDFYDFSYQSWSEENYWGQGTQVTVSS	low polyreactivity
QVQLVESGGGLVQAGGSLRLSCAASGSTFRYNAMGWYRQAPGKERELVASITWSGGDTYYADSVKGRFTISRDNAKNTVYLQMNSLKPEDTAVYYCAKKGYASRYFIYDYWGQGTQVTVSS	low polyreactivity
QVQLVESGGGLVQAGGSLRLSCAASGIIFGIYDMGWYRQAPGKERELVAAIRRSGGSTYYADSVKGRFTISRDNAKNTVYLQMNSLKPEDTAVYYCAATRHSRVRGGDYWGQGTQVTVSS	low polyreactivity
QVQLVESGGGLVQAGGSLRLSCAASGRIFLYYAMGWYRQAPGKERELVAAITSDGSTNYADSVKGRFTISRDNAKNTVYLQMNSLKPEDTAVYYCARRIQTYHYHYDYWGQGTQVTVSS	low polyreactivity
QVQLVESGGGLVQAGGSLRLSCAASGRIFARYAMGWYRQAPGKERELVAAISRGGSTKYADSVKGRFTISRDNAKNTVYLQMNSLKPEDTAVYYCARQLWGSPYGAYYAGDYWGQGTQVTVSS	low polyreactivity
QVQLVESGGGLVQAGGSLRLSCAASGSIFRPYAMGWYRQAPGKERELVAGISLRGGSTSYADSVKGRFTISRDNAKNTVYLQMNSLKPEDTAVYYCAASYWWKGDSTYGYWGQGTQVTVSS	high polyreactivity
QVQLVESGGGLVQAGGSLRLSCAASGLTFVDNALGWYRQAPGKDRELVAAISYNGGTTYYADSVKGRFTISRDNAKNTVYLQIISLKPEDTAVFYCAADISVGRYGDMDYWGQGTQVTVSS	low polyreactivity
QVQLVESGGGLVQAGGSLRLSCAASGSTFQFYAMGWYRQAPGKERELVASITSRGGNTHYADSVKGRFTISRDNAKNTVYLQMNSLKPEDTAVYYCAARGGWYGTYDYWGQGTQVTVSS	low polyreactivity

What value of measured polyreactivity (PSR sort gate) is listed for `QVQLVESGGGLVQAGGSLRLSCAASGITFGYYAMGWYRQAPGKERELVAAISRTGSTTYYADSVKGRFTISRDNAKNTVYLQMNRLKPEDTAVYYCAARRWGTNGGGSPMYYWGQGTQVTVSS` ? high polyreactivity

And then `QVQLEESGGGLVQAGVSLRLSCAASGIIFHFNDMVWYRQAPGKERELLAAIDSTGSTNYADSVKGRFTISRDNAKNTVYLQMNSLKPEDTAVYYCAVLNHRVDSVLTRYYYWGQGTQVTVSS` , what is it? low polyreactivity

And then `QVQLGESGGGLVQAGGSLRLSCAASGSIFSNYAMGWYRQAPWKERELVATIRLSGGSTYYADSVKGRFTISRDNAKNTVYLQMNSLKPEDTAVYDCAARIHWPYWYARLDYWGQVTQVTVSS` , what is it? high polyreactivity

----------
assay: yeast display, Sf9 membrane polyspecificity reagent, FACS + sequencing; frameworks hold sequencing errors
MEASURED_QUANTITY: polyreactivity (PSR sort gate)

Solved cases below.
ORDERED_RESIDUES	polyreactivity (PSR sort gate)
QVQLVESGGGLVQAGGSLRLSCAASGRIFHPNAMGWYRRATGKERELVAAISRSGSTYYADSVKGRFTISRDNAKNTVYLQMNSLKPEDTAVYYCATQTWSGYSGTPRIYDYWGQGTQVTVSS	high polyreactivity
QVQLVESGGGLVQAGGSLRLSCAASGSIFEPYAMGWYRQAPGKERELVAAISSDGTTNYADSVKGRFTISRDNAKNTVYLQMNSLKPEDTAVYYCAADVFNWGYYYWGQGTQVTVSS	low polyreactivity
QVQVVESGGGLVQAGGSLGLSCAASGFTFGRYARGWYRQAPGKERELVAAISRGGSTYYADSVKGRFTISRDNAMYTDYLQMNSLKTEDTAVYYCNAAGLPTQLYYWGQGTQVTVSS	high polyreactivity
QVQLVESGGGLVQAGGSLRLSCAASGLTFLYYAMGWYRQAPGKERELVAAISSRGGSTYYADSVKGRFKISRDNAKNTVYLQMNSLKPEDTAVYYCNAVRGDEYWGQGTQVTVSS	high polyreactivity
QIQLVESCGGLVQPGGSLRLSCAASGFTFYRYSRGWYRQAPGKERELVAPISTSGVSTYYADSVKGRFTISRDNAKNTVYLQMNSLKPEDTAVYYWAASAGPRASYYYWGQGTQVTVSS	high polyreactivity
QVQLVESGGGLVQAGGSLRLSCAASGNTFGRYAMGWYRQAPGKERELVAAITKRGGTTYYADSVKGRFTISRDYAKNTVYLQMNSLKPEDTAVYDCAAKRSVLRTADYDYWGQGTQVTVSS	high polyreactivity

What value of measured polyreactivity (PSR sort gate) is listed for `QVQLVESRGGSVQAGGSLRLSCAASGNIFYYAMGWYRQAPGKERELVAAISASGGSSYYADSVKGRFTISRDNAKNTVYLQMNSLKPEDTAVYYCKAVFYRGPGAQGDPRRRSDYWGQGTQVTVSS` ? high polyreactivity

And then `QVQRVESGGGLVQAGGSLRLSCAAAGLTFYGYAMGWYRQAPGKERELVAAITRSGGSTYYADSVKGRFTISRDNAKNTVYLQMNSLKPEDTAVYYCAAEEEYLYQSNRLHPYDYWGQGTQVTVSS` , what is it? low polyreactivity

And then `QDQLVESGGGLVQAGGSLRLSCPASGHTFAKYAMGWYRQAPGKERELVAAISSGGDTYYADSVKGRFTISRDNAKNTVYLQMNSLIPEDTAVYYCAATSICGSWSFWSPGEYRHYDYWGQGTQVTVSS` , what is it? low polyreactivity

And then `QVQLVESGGGLVQAGGSLRLRCAASGFTFYWYAMGWYRQAPGKEREIVAAIDQSGGSTYYADSVKGRFTISRDNAKNSVYLQMNSLKQEDTAVYYCAARYILWDGDSWTEFDYWGQGTQVTVSS` , what is it? low polyreactivity

And then `QVQLVESGGGLVQAGGSLRLSCAASGSIFRRNGMGWYRQAPGKERELVAAITYRGGNTNYADSVKGRFTISRDNAKNTVYFQMNRLKPEDTAVYYCAADTYGWWYAFEYWGQGTQVKVSS` , what is it? low polyreactivity

And then `QVQLVESGGGLVQAGGSLRLSCAASGSSFRGYAMGWSRQAPGKERELVAAISRSGGSTYYADSVKGRFTISRDNAKNTVYLQMKSLKPEDTAVYYCNARCSKRSSRGYDYWGQGTQVTVSS` , what is it? high polyreactivity

And then `QVQLVESGGGLVQAGGSLRLSCAASGITFRRYAMGWYRQAPGKERELVAVISVSGGRTHYADSVKGRFTISRDNAKNTVYLQMNSLKPEDTAVYYCAAQFSYRYYTDEVGYWGQGTQVTVSS` , what is it? high polyreactivity

And then `QVQLVESVRGSVQAGGSLRLSCAASGSTFYENAMGWYRPAPGKVRELVAAITWSGGRTYYADSVKGRFTISRDNAKNTVYLQMYSLKAEDTAVYYCNARARSRKFYYWGQGTQVTVSS` , what is it? high polyreactivity

And then `QVQLVESGAGLVLAGGSLRLSCAASGRTFRLYAMGWYRQAPGKERELVAAISYSDGRTYYADSVKGRFTISRDNAKNTVYLQMNSLKPEDTAVYYCAAETLYVAGSYYWGQGTQVTVSS` , what is it? high polyreactivity
